system: L. infantum MHOM/MA(BE)/67 strain; test: L. infantum intracellular amastigote assay in PMM (Giemsa, 5 days); assay type: cell-based, Leishmania infantum; conditions: read-out: L. inf. (EC50); amastigotes in PMM, 5 days
Record form. Attribute: pEC50. Fill in for each entry.
The meaning of pEC50 here: minus log10 of the concentration in molar units.

Provide pEC50 value for the following compound: O=C(NCCN1CCOCC1)c1cn(-c2ccccc2)nc1-c1ccc2c(c1)OCCO2 5.08

Provide pEC50 value for the following compound: c1ccc(-n2cc(CNCCN3CCCC3)c(-c3ccc4c(c3)OCCO4)n2)cc1 5.08

Provide pEC50 value for the following compound: c1ccc(-n2cc(CNCCc3ccccn3)c(-c3ccc4c(c3)OCCO4)n2)cc1 5.30
